experimentalSystem: human CB2 receptor (Homo sapiens)
assayProcedure: Binding assay, cannabinoid CB2 receptor ([3H]-CP-55,940 displacement)
conditionLabel: Cannabinoid CB2 Receptor Binding IC50, human CB2 receptor, SK-N-MC cell membranes, radioligand CP-55,940 0.2 nM
pIC50: −log10 of the molar value.
pIC50 of 7 or higher: Condition met. Under 7: Condition not met.

Solved cases below.
compound	classification
O=C(NCC12CC3CC(CC(C3)C1)C2)c1nn(Cc2ccccc2)c2c1CCCC2	Condition met
O=C(NC1C2CC3CC(C2)CC1C3)c1nn(Cc2ccccc2)c2c1CCCC2 (stereo not drawn)	Condition met
CCOC(=O)[C@H]1C2CCC(C2)[C@H]1NC(=O)c1nn(-c2ccc(F)cc2)c2c1CCCC2c1ccccc1 (stereo partly drawn)	Condition not met

Given CCOC(=O)C1CCc2c(c(C(=O)NC(C)C34CC5CC(CC(C5)C3)C4)nn2C2CCCCC2)C1 (stereo not drawn) , state whether its pIC50 is at least 7. Condition met

Try this compound too: `CCOC(=O)[C@H]1CCCC[C@@H]1NC(=O)c1c2c(nn1Cc1ccccc1)CCCC2` Condition not met

Continue with `O=C(NC12CC3CC(CC(C3)C1)C2)c1nn(C2CCCCC2)c2c1CCCC2` Condition met

Now the compound CCOC(=O)C1C2CCC(C2)C1NC(=O)c1c2c(nn1Cc1ccccc1)CCCC2 (stereo not drawn) Condition not met

Next: CC(C)(C)C1CCc2c(c(C(=O)NC3C4(C)CCC(C4)C3(C)C)nn2-c2ccccc2)C1 (stereo not drawn) Condition not met

Same again, this time with CN(C)C(=O)NC1CCc2c(c(C(=O)NC3C4CC5CC(C4)CC3C5)nn2C2CCCCC2)C1 (stereo not drawn) Condition met

Entry CCOC(=O)[C@H]1CCc2c(c(C(=O)NC(C)C34CC5CC(CC(C5)C3)C4)nn2C2CCCCC2)C1 (stereo partly drawn) please Condition not met

----------
experimentalSystem: human CB2 receptor (Homo sapiens, UniProt P34972)
Sequence (P34972 whole entry): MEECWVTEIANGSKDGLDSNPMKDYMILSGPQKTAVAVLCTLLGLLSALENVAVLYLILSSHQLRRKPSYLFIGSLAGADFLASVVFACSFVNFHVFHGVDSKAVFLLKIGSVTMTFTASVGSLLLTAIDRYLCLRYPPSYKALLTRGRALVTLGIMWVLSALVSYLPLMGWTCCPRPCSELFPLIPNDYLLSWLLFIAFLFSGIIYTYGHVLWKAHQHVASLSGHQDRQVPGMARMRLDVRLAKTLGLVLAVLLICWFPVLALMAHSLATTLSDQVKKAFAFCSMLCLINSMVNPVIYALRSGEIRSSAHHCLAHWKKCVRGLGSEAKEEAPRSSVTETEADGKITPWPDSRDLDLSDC
assayProcedure: Binding assay, cannabinoid CB2 receptor ([3H]-CP-55,940 displacement)
conditionLabel: Cannabinoid CB2 Receptor Binding IC50, human CB2 receptor, SK-N-MC cell membranes, radioligand CP-55,940 0.2 nM
// values below are reported pIC50
Quick note: pIC50 means taking -log10 of the concentration in moles per liter.

# example entries with known answers
compound	observedProperty	reportedResult
CCOC(=O)C1C2CCC(C2)C1NC(=O)c1nn(-c2ccc(F)cc2)c2c1CCCC2 (centres unmarked) [compound 23]	pIC50	7.00
CCOC(=O)[C@@H]1C2CCC(C2)[C@@H]1NC(=O)c1nn(C2CCCCC2)c2c1CCCC2 (some centres unmarked) [compound 278]	pIC50	7.43
O=C(CNC(=O)c1nn(C2CCCCC2)c2c1CCCC2)c1ccc(Br)cc1 [compound 177]	pIC50	5.62
CC1CCCc2c(C(=O)NC3C4(C)CCC(C4)C3(C)C)nn(-c3ccc(F)cc3)c21 (centres unmarked) [compound 13]	pIC50	8.19

Requested read-out: pIC50. Entry: CCOC(=O)[C@@H]1CCCC[C@@H]1NC(=O)c1nn(Cc2ccccc2)c2c1CCCC2 (relative stereo) [compound 38] 8.48

Next up: CCOC(=O)[C@H]1CCCC[C@@H]1NC(=O)c1nn(C2CCCCC2)c2c1CCCC2 [compound 59] 7.15

Request: CC[C@@H](NC(=O)c1nn(C2CCCCC2)c2c1CCCC2)c1ccccc1 [compound 204] 8.00
